System: Enterococcus sp.
experimentalDetails: in vitro antibacterial evaluation, MIC by broth dilution
Assay type: cell-based
studyConditions: Enterococcus faecalis (GC 4553); broth dilution, 18 hours at 35° C.
Text: Methods for in vitro Antibacterial Evaluation (Table 1) […]
I'd appreciate it if you marked entries True when MIC Enterococcus faecalis (GC 4553) is lower than 2 µg/mL and False when it is not.

Say whether its MIC Enterococcus faecalis (GC 4553) is strictly beneath 2 µg/mL. Entry: CC(C)CC(=O)OC1C(OC2C(CO)OC(Oc3ccc(CC4NC(=O)C(C(C)c5cccs5)NC(=O)CNC(=O)C(CO)NC(=O)C(C(O)C5CNC(=N)N5C5OC(CO)C(O)C(O)C5O)NC(=O)C(C(O)C5CNC(=N)N5)NC4=O)cc3)C(O)C2O)OC(CO)C(O)C1O (stereo not shown) [Example 265a] False

Say whether its MIC Enterococcus faecalis (GC 4553) is strictly beneath 2 µg/mL. Entry: CC(c1ccccc1)C1NC(=O)CNC(=O)C(CO)NC(=O)C(C(O)C2CNC(=N)N2C2OC(CO)C(O)C(O)C2O)NC(=O)C(C(O)C2CNC(=N)N2)NC(=O)C(Cc2ccc(OC3OC(CO)C(OC4OC5COC(c6cccc(Cl)c6)OC5C(O)C4O)C(O)C3O)cc2)NC1=O (stereo not shown) [Example 138] False

Say whether its MIC Enterococcus faecalis (GC 4553) is strictly beneath 2 µg/mL. Entry: CC=C(C)C(=O)OC1C(CO)OC(OC2C(CO)OC(Oc3ccc(CC4NC(=O)C(C(C)c5ccccc5)NC(=O)CNC(=O)C(CO)NC(=O)C(C(O)C5CNC(=N)N5C5OC(CO)C(O)C(O)C5O)NC(=O)C(C(O)C5CNC(=N)N5)NC4=O)cc3)C(O)C2O)C(O)C1O (stereo not shown) [Example 278b] False

Say whether its MIC Enterococcus faecalis (GC 4553) is strictly beneath 2 µg/mL. Entry: CCCc1ccc(C2OCC3OC(OC4C(CO)OC(Oc5ccc(CC6NC(=O)C(C(C)c7ccccc7)NC(=O)CNC(=O)C(CO)NC(=O)C(C(O)C7CNC(=N)N7C7OC(CO)C(O)C(O)C7O)NC(=O)C(C(O)C7CNC(=N)N7)NC6=O)cc5)C(O)C4O)C(O)C(O)C3O2)cc1 (stereo not shown) [Example 140] True

Say whether its MIC Enterococcus faecalis (GC 4553) is strictly beneath 2 µg/mL. Entry: Cc1ccc(CC2OCC3OC(OC4C(CO)OC(Oc5ccc(CC6NC(=O)C(C(C)c7ccccc7)NC(=O)CNC(=O)C(CO)NC(=O)C(C(O)C7CNC(=N)N7C7OC(CO)C(O)C(O)C7O)NC(=O)C(C(O)C7CNC(=N)N7)NC6=O)cc5)C(O)C4O)C(O)C(O)C3O2)cc1 (stereo not shown) [Example 119] False

Say whether its MIC Enterococcus faecalis (GC 4553) is strictly beneath 2 µg/mL. Entry: CN=C1N(C)CC(CC2NC(=O)C(Cc3ccc(OC4OC(CO)C(OC5OC(CO)C(O)C(O)C5O)C(O)C4O)cc3)NC(=O)C(C(C)c3ccccc3)NC(=O)CNC(=O)C(CO)NC(=O)C(CC3CN(C)C(=NC)N3C3OC(CO)C(O)C(O)C3O)NC2=O)N1C (stereo not shown) [Example 74] False

###

Test system: Enterococcus sp.
experimentalDetails: in vitro antibacterial evaluation, MIC by broth dilution
Assay type: cell-based
studyConditions: Enterococcus faecalis (GC 4554); broth dilution, 18 hours at 35° C.
I'd be grateful if you could share measured MIC Enterococcus faecalis (GC 4554) for these entries.
Numeric answer only, unit µg/mL assumed.

Find the measured MIC Enterococcus faecalis (GC 4554) of Cc1ccc(CC2OCC3OC(OC4C(CO)OC(Oc5ccc(CC6NC(=O)C(C(C)c7ccccc7)NC(=O)CNC(=O)C(CO)NC(=O)C(C(O)C7CNC(=N)N7C7OC(CO)C(O)C(O)C7O)NC(=O)C(C(O)C7CNC(=N)N7)NC6=O)cc5)C(O)C4O)C(O)C(O)C3O2)cc1 (stereo not shown) with Enterococcus sp. as test system. 2

Find the measured MIC Enterococcus faecalis (GC 4554) of CCC(CC)C1OCC2OC(OC3C(CO)OC(Oc4ccc(CC5NC(=O)C(C(C)c6ccccc6)NC(=O)CNC(=O)C(CO)NC(=O)C(C(O)C6CNC(=N)N6C6OC(CO)C(O)C(O)C6O)NC(=O)C(C(O)C6CNC(=N)N6)NC5=O)cc4)C(O)C3O)C(O)C(O)C2O1 (stereo not shown) with Enterococcus sp. as test system. 2

Find the measured MIC Enterococcus faecalis (GC 4554) of CC=C(C)C(=O)OC1C(CO)OC(OC2C(CO)OC(Oc3ccc(CC4NC(=O)C(C(C)c5ccccc5)NC(=O)CNC(=O)C(CO)NC(=O)C(C(O)C5CNC(=N)N5C5OC(CO)C(O)C(O)C5O)NC(=O)C(C(O)C5CNC(=N)N5)NC4=O)cc3)C(O)C2O)C(O)C1O (stereo not shown) [Example 278b] with Enterococcus sp. as test system. 32

###

Test system: Staphylococcus sp.
experimentalDetails: in vitro antibacterial evaluation, MIC by broth dilution
Assay type: cell-based
studyConditions: strain GC 4544; broth dilution, 18 hours at 35° C.
Numbered stars: 1 amine (or outer) side, 2 acyl side, 3 side chain; on linkers, the order of the positions; unused ones are H or OH. Square brackets hold non-standard residues; d marks the D form. Peptide text beside a SMILES is read from it. ξ: configuration not given here. X1 = N=C1NCC(C(O)C(N[*:1])C(=O)[*:2])N1C1OC(CO)C(O)C(O)C1O; ξEnduracididine(βξ-OH,4'ξ) = N=C1NCC(C(O)C(N)C(=O)O)N1; Cha = N[CH](CC1CCCCC1)C(=O)O
I'd be grateful if you could share measured MIC Staphylococcus aureus (GC 4544) for these entries.
Numeric answer only, unit µg/mL assumed.

Tell me measured MIC Staphylococcus aureus (GC 4544) for CC(c1ccccc1)C1NC(=O)CNC(=O)C(CO)NC(=O)C(CC2CNC(=N)N2C2OC(CO)C(O)C(O)C2O)NC(=O)C(CC2CNC(=N)N2)NC(=O)C(Cc2ccc(OC3OC(CO)C(OC4OC5COC6(OC5C(O)C4O)C4CC5CC(C4)CC6C5)C(O)C3O)cc2)NC1=O (stereo not shown) please. 8

Tell me measured MIC Staphylococcus aureus (GC 4544) for N=C1NCC(C(O)C2NC(=O)C(CC3CCCCC3)NC(=O)C(CC3CCCCC3)NC(=O)CNC(=O)C(CO)NC(=O)C(C(O)C3CNC(=N)N3C3OC(CO)C(O)C(O)C3O)NC2=O)N1 (stereo not drawn) [Example 52] (cyclo(G[Cha][Cha][ξEnduracididine(βξ-OH,4'ξ)][X1]S); configuration not given here) please. 16

Tell me measured MIC Staphylococcus aureus (GC 4544) for CC(c1ccccc1)C1NC(=O)CNC(=O)C(CO)NC(=O)C(CC2CNC(=N)N2C2OC(CO)C(O)C(O)C2O)NC(=O)C(CC2CNC(=N)N2)NC(=O)C(Cc2ccc(OC3OC(CO)C(OC4OC5COC(c6ccc(OCc7ccccc7)cc6)OC5C(O)C4O)C(O)C3O)cc2)NC1=O (stereo not shown) please. 8

Tell me measured MIC Staphylococcus aureus (GC 4544) for N=C1NCC(C(O)C2NC(=O)C(Cc3ccc(OC4OC(CO)C(OC5OC6COC(c7ccccc7)OC6C(O)C5O)C(O)C4O)cc3)NC(=O)C(CC3CCCCC3)NC(=O)CNC(=O)C(CO)NC(=O)C(C(O)C3CNC(=N)N3C3OC(CO)C(O)C(O)C3O)NC2=O)N1 (stereo not shown) please. 2

Tell me measured MIC Staphylococcus aureus (GC 4544) for CC(c1ccccc1)C1NC(=O)CNC(=O)C(CO)NC(=O)C(C(O)C2CN(Cc3ccc(C(F)(F)F)cc3)C(=N)N2C2OC(CO)C(O)C(O)C2O)NC(=O)C(C(O)C2CNC(=N)N2)NC(=O)C(Cc2ccc(OC3OC(CO)C(OC4OC5COC6(OC5C(O)C4O)C4CC5CC(C4)CC6C5)C(O)C3O)cc2)NC1=O (stereo not shown) please. 16

###

Tested on: Enterococcus sp.
experimentalDetails: in vitro antibacterial evaluation, MIC by broth dilution
Type: cell-based
studyConditions: broth dilution, 18 hours at 35° C.
measuredProperty: MIC Enterococcus faecium (GC 2243) (µg/mL)
Numeric answer only, unit µg/mL assumed.

Tell me measured MIC Enterococcus faecium (GC 2243) for CC(c1ccccc1)C1NC(=O)CNC(=O)C(CO)NC(=O)C(C(O)C2CNC(=N)N2C2OC(CO)C(O)C(O)C2O)NC(=O)C(C(O)C2CNC(=N)N2)NC(=O)C(Cc2ccc(OC3OC(CO)C(OC4OC5COC6(CCC(C(C)(C)C)CC6)OC5C(O)C4O)C(O)C3O)cc2)NC1=O (centres unmarked) [Example 208] please. 8

Tell me measured MIC Enterococcus faecium (GC 2243) for CC(c1ccccc1)C1NC(=O)CNC(=O)C(CO)NC(=O)C(C(O)C2CN(c3ncccn3)C(=N)N2C2OC(CO)C(O)C(O)C2O)NC(=O)C(C(O)C2CNC(=Nc3ncccn3)N2)NC(=O)C(Cc2ccc(OC3OC(CO)C(OC4OC5COC6(OC5C(O)C4O)C4CC5CC(C4)CC6C5)C(O)C3O)cc2)NC1=O (centres unmarked) [Example 228] please. 16

Tell me measured MIC Enterococcus faecium (GC 2243) for CC(C)=CCCC(C)=CCN=C1NCC(C(O)C2NC(=O)C(C(O)C3CNC(=N)N3)NC(=O)C(Cc3ccc(OC4OC(CO)C(OC5OC6COC7(OC6C(O)C5O)C5CC6CC(C5)CC7C6)C(O)C4O)cc3)NC(=O)C(C(C)c3ccccc3)NC(=O)CNC(=O)C(CO)NC2=O)N1C1OC(CO)C(O)C(O)C1O (centres unmarked) [Example 82] please. 8

Tell me measured MIC Enterococcus faecium (GC 2243) for COc1ccc(COCC2OC(OC3C(CO)OC(Oc4ccc(CC5NC(=O)C(C(C)c6ccccc6)NC(=O)CNC(=O)C(CO)NC(=O)C(C(O)C6CNC(=N)N6C6OC(CO)C(O)C(O)C6O)NC(=O)C(C(O)C6CNC(=N)N6)NC5=O)cc4)C(O)C3O)C(O)C(O)C2O)cc1 (centres unmarked) [Example 232] please. 16

Tell me measured MIC Enterococcus faecium (GC 2243) for CC(c1ccccc1)C1NC(=O)CNC(=O)C(CO)NC(=O)C(C(O)C2CNC(=N)N2C2OC(CO)C(O)C(O)C2O)NC(=O)C(C(O)C2CNC(=N)N2)NC(=O)C(Cc2ccc(OC3OC(CO)C(OC4OC5COC6(CCCCCCCCCCC6)OC5C(O)C4O)C(O)C3O)cc2)NC1=O (centres unmarked) [Example 209] please. 1

Tell me measured MIC Enterococcus faecium (GC 2243) for CC(C1CCCCC1)C1NC(=O)CNC(=O)C(CO)NC(=O)C(C(O)C2CNC(=N)N2C2OC(CO)C(O)C(O)C2O)NC(=O)C(C(O)C2CNC(=N)N2)NC(=O)C(Cc2ccc(OC3OC(CO)C(OC4OC5COC6(OC5C(O)C4O)C4CC5CC(C4)CC6C5)C(O)C3O)cc2)NC1=O (centres unmarked) [Example 221] please. 2

Tell me measured MIC Enterococcus faecium (GC 2243) for CC(c1ccccc1)C1NC(=O)CNC(=O)C(CO)NC(=O)C(C(O)C2CNC(=N)N2C2OC(CO)C(O)C(O)C2O)NC(=O)C(C(O)C2CNC(=N)N2)NC(=O)C(Cc2ccc(OC3OC(CO)C(OC4OC5COC6(OC5C(O)C4O)C(C)CCCC6C)C(O)C3O)cc2)NC1=O (centres unmarked) [Example 206] please. 2

Tell me measured MIC Enterococcus faecium (GC 2243) for Cc1ccc(Oc2cccc(C3OCC4OC(OC5C(CO)OC(Oc6ccc(CC7NC(=O)C(C(C)c8ccccc8)NC(=O)CNC(=O)C(CO)NC(=O)C(C(O)C8CNC(=N)N8C8OC(CO)C(O)C(O)C8O)NC(=O)C(C(O)C8CNC(=N)N8)NC7=O)cc6I)C(O)C5O)C(O)C(O)C4O3)c2)cc1 (centres unmarked) [Example 197] please. 64

Tell me measured MIC Enterococcus faecium (GC 2243) for COc1ccc2cc(COCC3OC(OC4C(CO)OC(Oc5ccc(CC6NC(=O)C(C(C)c7ccccc7)NC(=O)CNC(=O)C(CO)NC(=O)C(C(O)C7CNC(=N)N7C7OC(CO)C(O)C(O)C7O)NC(=O)C(C(O)C7CNC(=N)N7)NC6=O)cc5)C(O)C4O)C(O)C(O)C3O)ccc2c1 (centres unmarked) [Example 230] please. 8

Tell me measured MIC Enterococcus faecium (GC 2243) for CC(c1ccccc1)C1NC(=O)CNC(=O)C(CO)NC(=O)C(C(O)C2CNC(=N)N2C2OC(CO)C(O)C(O)C2O)NC(=O)C(C(O)C2CNC(=N)N2)NC(=O)C(Cc2ccc(OC3OC(CO)C(OC4OC5COC6(CC7CCC6(C)C7(C)C)OC5C(O)C4O)C(O)C3O)cc2)NC1=O (centres unmarked) [Example 214] please. 1

Tell me measured MIC Enterococcus faecium (GC 2243) for COc1ccc2cc(C3OCC4OC(OC5C(CO)OC(Oc6ccc(CC7NC(=O)C(C(C)c8ccccc8)NC(=O)CNC(=O)C(CO)NC(=O)C(CC8CNC(=N)N8C8OC(CO)C(O)C(O)C8O)NC(=O)C(CC8CNC(=N)N8)NC7=O)cc6)C(O)C5O)C(O)C(O)C4O3)ccc2c1 (centres unmarked) [Example 190] please. 32
